Listed here: items and their measured IC50.
# TARGET OR TEST SYSTEM: human VR1 (Homo sapiens, UniProt Q8NER1)
# Sequence (Q8NER1 whole entry): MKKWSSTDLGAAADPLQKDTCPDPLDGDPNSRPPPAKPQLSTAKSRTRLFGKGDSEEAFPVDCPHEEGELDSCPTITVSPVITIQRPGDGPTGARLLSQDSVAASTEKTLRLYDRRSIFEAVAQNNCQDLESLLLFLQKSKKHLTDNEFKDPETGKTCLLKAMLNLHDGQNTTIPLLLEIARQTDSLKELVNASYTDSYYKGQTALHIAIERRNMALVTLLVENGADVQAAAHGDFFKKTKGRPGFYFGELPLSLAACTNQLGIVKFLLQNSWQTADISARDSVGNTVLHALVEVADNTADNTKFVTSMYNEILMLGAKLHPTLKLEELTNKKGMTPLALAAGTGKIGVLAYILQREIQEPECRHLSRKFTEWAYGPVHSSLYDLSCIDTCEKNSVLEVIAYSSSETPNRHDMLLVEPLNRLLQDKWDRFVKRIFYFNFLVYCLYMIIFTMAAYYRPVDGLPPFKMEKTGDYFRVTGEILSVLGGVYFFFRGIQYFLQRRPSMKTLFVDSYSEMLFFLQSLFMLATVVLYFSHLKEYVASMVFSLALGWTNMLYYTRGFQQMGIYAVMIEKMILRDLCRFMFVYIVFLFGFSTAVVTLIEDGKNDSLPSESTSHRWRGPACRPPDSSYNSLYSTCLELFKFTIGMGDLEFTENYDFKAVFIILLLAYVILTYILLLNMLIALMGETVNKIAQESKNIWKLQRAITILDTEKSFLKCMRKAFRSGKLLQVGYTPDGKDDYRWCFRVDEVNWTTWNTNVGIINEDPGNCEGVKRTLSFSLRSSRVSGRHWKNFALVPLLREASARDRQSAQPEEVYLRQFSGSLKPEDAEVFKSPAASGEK
# TEST: Inhibition of Ca2+ entry in cells caused by proton (VR1 agonist)
# COND: Rat glioma (C6BU1) cells stably expressing human VR1; proton stimulation to pH 5.5; Fura 2-AM fluorescence; read-out: In vitro IC50
Where a name gives a salt, the structure may show the parent alone.

Specify reported IC50 for the compound shown: CN(c1cc(C(=O)Nc2ccc(Cl)cc2)ccc1Cl)c1ncc(CO)cc1Cl ≤ 0.1 µM

Specify reported IC50 for the compound shown: COc1ccc(C(=O)Nc2ccc(C(C)(C)C)cc2)cc1N(c1ncccc1Cl)C(C)C ≤ 0.1 µM

Specify reported IC50 for the compound shown: CNC(=O)CN(c1cc(C(=O)Nc2ccc(C(F)(F)F)cc2)ccc1Cl)c1ncccc1Cl ≤ 0.1 µM

Specify reported IC50 for the compound shown: CN(C)C(=O)COc1ccc(C(=O)Nc2ccc(C(C)(C)C)cc2)cc1N(C)c1ncccc1Cl 0.1 to 1 µM

Specify reported IC50 for the compound shown: CN(C)C(=O)c1cnc(N(C)c2cc(C(=O)Nc3ccc(C(C)(C)C)cc3)ccc2Cl)c(Cl)c1 0.1 to 1 µM

Specify reported IC50 for the compound shown: CN(c1cccc(C(=O)Nc2ccc(C(C)(C)C)cc2)c1O)c1ncccc1Cl 0.1 to 1 µM

Specify reported IC50 for the compound shown: CN(c1cccc(C(=O)Nc2ccc(C(C)(C)C)cc2)c1)c1ncccc1Cl [Example 1, hydrochloride salt] ≤ 0.1 µM

Specify reported IC50 for the compound shown: Cc1ccc(C(=O)Nc2ccc(C(C)(C)C)cc2)cc1N(C)c1ncccc1Cl ≤ 0.1 µM

Specify reported IC50 for the compound shown: CN(c1cc(C(=O)Nc2ccc(C(C)(C)C)cc2)ccc1OCC(N)=O)c1ncccc1Cl ≤ 0.1 µM

Specify reported IC50 for the compound shown: CN(c1cc(C(=O)Nc2ccc(OC(F)(F)F)cc2)ccc1Cl)c1ncc(CO)cc1Cl ≤ 0.1 µM

Specify reported IC50 for the compound shown: CNC(=O)c1cc(NC(=O)c2ccc(Cl)c(N(CCO)c3ncccc3Cl)c2)ccc1OCC(C)C ≤ 0.1 µM

Specify reported IC50 for the compound shown: CN(c1cc(C(=O)Nc2ccc(C(C)(C)C)cc2)ccc1Cl)c1ncc(C(N)=O)cc1Cl ≤ 0.1 µM

Specify reported IC50 for the compound shown: CC(C)(C)c1ccc(NC(=O)c2ccc(Cl)c(N(CCCO)c3ncccc3Cl)c2)cc1 ≤ 0.1 µM

Specify reported IC50 for the compound shown: CN(c1cc(C(=O)Nc2ccc(C(F)(F)F)cc2)ccc1F)c1ncc(CO)cc1Cl ≤ 0.1 µM

Specify reported IC50 for the compound shown: NC(=O)CN(c1cc(C(=O)Nc2ccc(OC(F)(F)F)cc2)ccc1Cl)c1ncc(C(F)(F)F)cc1Cl ≤ 0.1 µM

Specify reported IC50 for the compound shown: O=C(Nc1ccc(C(F)(F)F)cc1)c1ccc(Cl)c(N(CCO)c2ncccc2Cl)c1 [Example 31, hydrochloride salt] ≤ 0.1 µM

Specify reported IC50 for the compound shown: CNC(=O)c1cnc(N(C)c2cc(C(=O)Nc3ccc(C(C)(C)C)cc3)ccc2Cl)c(Cl)c1 0.1 to 1 µM

Specify reported IC50 for the compound shown: CN(c1cccc(C(=O)Nc2ccc(C(C)(C)C)cc2)c1)c1ccccc1Cl ≤ 0.1 µM

Specify reported IC50 for the compound shown: O=C(Nc1ccc(Cl)c(C(F)(F)F)c1)c1ccc(Cl)c(N(CCO)c2ncccc2Cl)c1 ≤ 0.1 µM
